- assay_comment: RP, Waters ACQUITY UPLC HSS C18, 100 × 2.1 mm, 1.7 µm, 40 °C, 0.35 mL/min, estimated dead time 0.63 min; A: water + 0.1% formic acid; B: methanol + 0.1% formic acid; gradient (min/%B) 0/0.5 4/70 4.5/98 5.4/98
- settings: stereoisomer not certain
Provide the reported LC retention time of each item.

Example cases with answers are listed next.
compound | LC retention time
O=C(O)CC(O)(CC(=O)O)C(=O)O | 1.43 min
NC(Cc1c[nH]c2ccc(O)cc12)C(=O)O (stereo not given) | 1.97 min
O=C(O)C=C(CC(=O)O)C(=O)O | 1.84 min
Cc1ccc(O)c(O)c1 | 3.49 min

(Q) Report LC retention time for Nc1c(O)cccc1C(=O)O please.
(A) 2.57 min

###

- assay_comment: RP, Waters ACQUITY UPLC HSS C18, 100 × 2.1 mm, 1.7 µm, 40 °C, 0.35 mL/min, estimated dead time 0.63 min; A: water + 0.1% formic acid; B: methanol + 0.1% formic acid; gradient (min/%B) 0/0.5 4/70 4.5/98 5.4/98
- settings: stereoisomer not certain
Provide the reported LC retention time of each item.
Answers are plain numbers, in min.

Example cases with answers are listed next.
compound | reported_measurement
OC1C2COC(O2)C(O)C1O (stereo not given) | 0.85
COc1cc(C(=O)O)cc(OC)c1O | 3.43
CC(=O)NC(C)C(=O)O (stereo not given) | 1.77
O=C(O)c1cc(O)c(O)c(O)c1 | 1.88

For the next question, use this compound.
(Q) Report LC retention time for NC(CC(=O)O)C(=O)NC(Cc1ccccc1)C(=O)O (stereo not given) please.
(A) 2.95

###

- assay_comment: Waters ACQUITY UPLC BEH C18, 100 × 2.1 mm, 1.7 µm, 40 °C, 0.28 mL/min, estimated dead time 0.63 min; A: water + 6.5 mM ammonium hydroxide; B: methanol + 6.5 mM ammonium hydroxide; gradient (min/%B) 0/0.5 4/70 4.5/98 5.4/98
- settings: stereoisomer not certain
Please enter 1.0 where LC retention time is greater than or equal to 2 min, and 0.0 where it is lower.

compound | group_label
NCCC(=O)O | 0.0
O=C(O)Cc1cnc[nH]1 | 0.0
Nc1ccn(C2CC(O)C(CO)O2)c(=O)n1 (configuration not stated) | 0.0

(Q) Can C[n+]1cccc(C(=O)[O-])c1 be said to have LC retention time at or above 2 min?
(A) 0.0

###

- assay_comment: Waters ACQUITY UPLC BEH C18, 100 × 2.1 mm, 1.7 µm, 40 °C, 0.28 mL/min, estimated dead time 0.63 min; A: water + 6.5 mM ammonium hydroxide; B: methanol + 6.5 mM ammonium hydroxide; gradient (min/%B) 0/0.5 4/70 4.5/98 5.4/98
- settings: stereoisomer not certain
Please enter fulfilled where LC retention time is greater than or equal to 3 min, and not fulfilled where it is lower.

Example cases with answers are listed next.
molecule | group_label
O=C1NS(=O)(=O)c2ccccc21 | not fulfilled
CCCOC(=O)c1ccc(O)cc1 | fulfilled
O=C(O)CNC(=O)c1ccccc1O | not fulfilled
CC1(C)SC2C(NC(=O)C(N)c3ccccc3)C(=O)N2C1C(=O)O (centres undefined) | fulfilled
O=C(O)c1ccc(=O)[nH]c1 | not fulfilled
CNCCc1ccc(O)cc1 | not fulfilled
O=C(O)c1cc(O)cc(O)c1 | not fulfilled
O=c1cc[nH]c(=O)[nH]1 | not fulfilled

(Q) Can CCC1(C)CC(=O)NC1=O (centres undefined) be said to have LC retention time at or above 3 min?
(A) fulfilled

(Q) Can CC(C)Cc1ccc(C(C)C(=O)O)cc1 (centres undefined) be said to have LC retention time at or above 3 min?
(A) fulfilled

(Q) Can CCOC(=O)Cc1c[nH]c2ccccc12 be said to have LC retention time at or above 3 min?
(A) fulfilled

(Q) Can CC(CO)C(=O)O (centres undefined) be said to have LC retention time at or above 3 min?
(A) not fulfilled

(Q) Can CSCC1OC(n2cnc3c(N)ncnc32)C(O)C1O (centres undefined) be said to have LC retention time at or above 3 min?
(A) fulfilled

(Q) Can COc1cc(C=O)ccc1O be said to have LC retention time at or above 3 min?
(A) not fulfilled
